# Tested on: ACHN
# Test Description: NCI tumour cell line growth inhibition, 48 h
The source made the active and inactive calls. Rule as the data show it: active = GI50 up to about 1.1 µM and inactive = higher. Residues, ends and D or L forms follow the SMILES beside them. *: point of attachment. Bn = c1ccc(C*)cc1
Permitted responses: active, inactive

COC(=O)C(CC(C)C)NC(=O)C(N)Cc1ccc(OCc2ccccc2)cc1 (centres undefined) (H-Tyr(Bn)-Leu-OMe; configuration not given here) = inactive
CCCCc1c2c(nc3c1CCC/C3=C\c1ccccc1)C(=O)CCC2 = inactive
CC1(C)O[C@@H](CP(c2cccc3ccccc23)c2cccc3ccccc23)[C@H](CP(c2cccc3ccccc23)c2cccc3ccccc23)O1 = inactive
Cc1ccc(S(=O)(=O)NC(=O)C2=C3SCCN3C(=O)N(S(=O)(=O)c3ccc(C)cc3)C2c2ccccc2)cc1 (centres undefined) = inactive
CCN(CC)C(=O)N1CCN(C=S)CC1 = inactive

*Q* Please let me know the test result on file for N=C1C=C(N)C(=O)c2[nH]c(=O)ccc21 .
*A* inactive

*Q* Please let me know the test result on file for COc1ccc(/C=C\c2cc(OC)c(OC)c(OC)c2)cc1OC .
*A* active

*Q* Please let me know the test result on file for C1=CC(=P(c2ccccc2)(c2ccccc2)c2ccccc2)C=C1 .
*A* inactive

*Q* Please let me know the test result on file for CN1CCN(CCn2c3c4ccccc4ccc3c3oc(=O)c4ccccc4c32)CC1 .
*A* inactive

Cited source: ChEMBL document CHEMBL1201862
